Biological target: T1, soluble mouse BLyS (mouse, UniProt Q9WU72 127-309)
T1 construct: europium-labelled in DELFIA; also called mBLyS; mouse BAFF (BLyS)
Test: Biacore, antibody captured on chip, BLyS injected, 1:1 model, 25 C
readoutType: koff (s⁻¹)

- binder: "8D12 IgG1 F243A/V264A double mutein expressed in Pichia pastoris (antibody, V domains shown, IgG1 F243A/V264A (EU) double mutein, alpha-2,6-sialylated, from glycoengineered Pichia pastoris; also called 8D12-DM; 8D12-DM (Pichia)) VH: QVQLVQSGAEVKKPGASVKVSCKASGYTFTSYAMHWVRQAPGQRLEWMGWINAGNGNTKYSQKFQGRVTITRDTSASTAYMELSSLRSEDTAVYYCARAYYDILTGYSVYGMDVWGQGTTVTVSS VL: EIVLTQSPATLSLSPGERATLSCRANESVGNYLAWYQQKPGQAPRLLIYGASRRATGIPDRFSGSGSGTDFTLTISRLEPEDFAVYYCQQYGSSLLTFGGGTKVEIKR"
  unitOfMeasurement: "s⁻¹"
  measValue: "5.7e-05"
